# Target Of Assay: GABA-A receptor; anion channel
# Assay: In vitro binding affinity for neuronal GABA-A benzodiazepine receptor
# Format: protein-complex assay
Known Ki of a selection of molecules

Molecule | Ki
CN1CCN(C2=Nc3ccccc3Nc3sc(CO)cc32)CC1 | > 1 µM
Cc1cc2c(s1)Nc1ccccc1N=C2N1CCN(C)CC1 [OLANZAPINE] | > 10 µM
Cc1cc2c(s1)Nc1ccccc1N=C2N1CC[N+](C)([O-])CC1 | > 10 µM
Cc1cc2c(s1)Nc1ccccc1N=C2N1CCNCC1 [DESMETHYLOLANZAPINE] | > 10 µM

###

# Target Of Assay: D(2) dopamine receptor (Homo sapiens)
# Sequence (P14416 whole entry): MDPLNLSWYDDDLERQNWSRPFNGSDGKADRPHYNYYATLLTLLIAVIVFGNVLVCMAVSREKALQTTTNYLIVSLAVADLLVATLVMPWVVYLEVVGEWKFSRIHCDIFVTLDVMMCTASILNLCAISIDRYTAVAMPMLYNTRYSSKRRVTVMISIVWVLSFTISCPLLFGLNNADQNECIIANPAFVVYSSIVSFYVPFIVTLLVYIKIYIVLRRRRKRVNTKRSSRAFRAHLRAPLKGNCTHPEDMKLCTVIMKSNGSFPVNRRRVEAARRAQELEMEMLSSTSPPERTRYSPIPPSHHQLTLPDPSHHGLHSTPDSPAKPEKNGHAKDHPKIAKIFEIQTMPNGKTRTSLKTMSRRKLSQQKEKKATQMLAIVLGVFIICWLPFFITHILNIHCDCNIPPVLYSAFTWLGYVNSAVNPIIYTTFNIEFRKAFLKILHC
# Assay: In vitro binding affinity of compound against neuronal Dopamine receptor D2
Listed compounds paired with reported Ki

Compound String | Ki (nM)
CN1CCN(C2=Nc3ccccc3Nc3sc(CO)cc32)CC1 | 22
Cc1cc2c(s1)Nc1ccccc1N=C2N1CCNCC1 | 9
Cc1cc2c(s1)Nc1ccccc1N=C2N1CC[N+](C)([O-])CC1 | 119
